Recorded % inhibition for the following molecules
# System: Trypanosoma brucei
# Experimental Protocol: DNDI: Inhibition of Human African Trypanosomiasis, SBRI 427, in vitro at 2 ug.mL-1
# Assay type: functional
Screen size: about 4,400 compounds; about 390 (8.9%) showed an effect of 50% or more. This is one part of a sample in which strong results are shown more often than they occur.
Quantity Name: % inhibition

[[record]]
smiles_code = "CCc1ccc(Oc2ncccc2/C(=N/O)NCCOC)cc1"
target_or_system = "Trypanosoma brucei"
reported_measurement = "86%"

[[record]]
smiles_code = "CN(CCc1ccccc1)Cc1coc(-c2ccccc2Cl)n1"
target_or_system = "Trypanosoma brucei"
reported_measurement = "17%"

[[record]]
smiles_code = "COCCN/C(=N\\O)c1cccnc1Oc1cccc(C(F)(F)F)c1"
target_or_system = "Trypanosoma brucei"
reported_measurement = "1%"

[[record]]
smiles_code = "CCc1ccc(Oc2ncccc2/C(=N/O)NCCN(C)C)cc1"
target_or_system = "Trypanosoma brucei"
reported_measurement = "5%"

[[record]]
smiles_code = "COc1ccc(Oc2ncccc2/C(=N/O)Nc2ccc(C(C)C)cc2)cc1"
target_or_system = "Trypanosoma brucei"
reported_measurement = "-14%"

[[record]]
smiles_code = "COCCN/C(=N\\O)c1cccnc1Oc1ccc(C(C)C)cc1"
target_or_system = "Trypanosoma brucei"
reported_measurement = "97%"

